Tested on: Malme-3M
Test protocol: NCI tumour cell line growth inhibition, 48 h
Active and inactive are the calls of the source. No stated cut-off is given here; in the data, active = GI50 up to about 1.1 µM and inactive = higher.
Quantity name: GI50

                                    compound          result_value
 0             Cc1cc(O)nc2cc3oc4ccccc4c3cc12  > 30.1 µM (inactive)
 1  O=C(CCc1n[nH]c(=S)o1)Nc1cc(Cl)c(Cl)cc1Cl   > 100 µM (inactive)
 2   Cc1ccc(S(=O)(=O)N/N=c2/sc3ccccc3n2C)cc1   > 100 µM (inactive)
 3  N#CC1=C(N)C(C#N)(C#N)C(c2ccc(F)cc2)C=C1C1CC1 (stereo not drawn)    11.5 µM (inactive)
 4  C[C@]12CC[C@H](O)CC1=CC[C@@H]1C2CC[C@]2(C)Nc3c(cnn3-c3ccc(F)cc3)CC12 (stereo partly drawn)    14.2 µM (inactive)
 5  CC(=O)OCC12CC(CC1OC(C)=O)c1ccccc12 (stereo not drawn)   > 100 µM (inactive)
 6                              c1cc2nnsc2s1   > 100 µM (inactive)
 7  O=C(/C=C/c1ccc(O)c(O)c1)O[C@H]1CCCC[C@@H]1OC(=O)/C=C/c1ccc(O)c(O)c1    15.7 µM (inactive)
 8  O=C1C2C3C=CC(C2C(=O)N1COP(=O)(O)O)C1C2C(=O)N(COP(=O)(O)O)C(=O)C2C31 (stereo not drawn)   > 100 µM (inactive)
 9  COc1ccc(-n2nnc3c(C#N)c(-c4ccccc4)c(C)n3c2=O)cc1   > 100 µM (inactive)
10  CC1(O)/C(=N/O)CC2CC1C2(C)C (stereo not drawn)   > 100 µM (inactive)
11  Cc1ccc2c(c1)-c1nc(N)c(C#N)c(-c3ccccc3)c1CCS2(=O)=O    23.8 µM (inactive)
12  CS(=O)(=O)N(CCC#N)c1ccc(/C=N/NC(=O)CC(=O)Nc2cccc(Cl)c2)cc1   > 100 µM (inactive)

The values you see were collected from ChEMBL document CHEMBL1201862.
